Test system: VDR homodimer (NR concentration 270 nM)
assaySummary: PBM binding z-score (relative to random genomic background probes); higher = stronger binding; sequences stand for … in GC…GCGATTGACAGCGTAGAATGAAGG
valueKind: PBM binding z-score
One number for each entry.

Guide cases for PBM binding z-score, answers given:
- residueString: "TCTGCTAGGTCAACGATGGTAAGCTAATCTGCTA"
  PBM binding z-score: -0.612
- residueString: "CCTACTGGGCCACGAAAGCTCATTGATTCAGTGA"
  PBM binding z-score: -0.935
- residueString: "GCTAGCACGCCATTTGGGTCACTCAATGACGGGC"
  PBM binding z-score: -0.357
- residueString: "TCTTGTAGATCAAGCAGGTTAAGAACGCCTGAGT"
  PBM binding z-score: 0.189
- residueString: "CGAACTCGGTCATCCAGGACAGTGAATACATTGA"
  PBM binding z-score: 1.15
- residueString: "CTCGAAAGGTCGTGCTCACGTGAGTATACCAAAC"
  PBM binding z-score: 1.06
- residueString: "ACAGACAGGTGAGTGAAGGTAACTCGGCTGGACG"
  PBM binding z-score: -0.648
- residueString: "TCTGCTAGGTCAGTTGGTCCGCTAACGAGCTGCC"
  PBM binding z-score: -0.485

For each of the items listed, what is its PBM binding z-score?
1. CCTCGGAGCACAGAAGGTCAGAGCTGTCCGCTTT
2. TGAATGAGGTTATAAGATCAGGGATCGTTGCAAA
3. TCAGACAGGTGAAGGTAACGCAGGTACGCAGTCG
4. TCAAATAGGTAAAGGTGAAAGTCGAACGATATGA

[-0.376, 0.406, -0.187, 0.351]

----------
Tested on: PXR:RXRa (NR concentration 270 nM, RXRa partner concentration 90 nM)
assaySummary: PBM binding z-score (relative to random genomic background probes); higher = stronger binding; sequences stand for … in GC…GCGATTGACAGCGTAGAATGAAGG
Assign MET to entries whose PBM binding z-score meets or exceeds 0.8; assign NOT MET to the rest.

- residueString: "AGAATGCGGTTATTAAGATCAGGGAATTGCGGTC"
  label: "NOT MET"
- residueString: "TCAAGTTGGTCACGGAGGTCACACACGACGGGTA"
  label: "MET"
- residueString: "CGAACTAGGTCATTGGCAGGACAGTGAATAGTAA"
  label: "MET"
- residueString: "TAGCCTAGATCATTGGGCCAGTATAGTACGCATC"
  label: "NOT MET"
- residueString: "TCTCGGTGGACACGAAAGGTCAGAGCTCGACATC"
  label: "MET"

Record CCGACTGGGGCAAAGGTTGCCATACTCAGTACGA ; criterion: PBM binding z-score no lower than 0.8. Met?
NOT MET

Record CCTAGCAGGCCAATCTGGGTCACCCAAGGCTTGA ; criterion: PBM binding z-score no lower than 0.8. Met?
MET

----------
Can you tell me PBM binding z-score for the items I'm about to list?
Tested on: RXRa homodimer (NR concentration 180 nM)
assaySummary: PBM binding z-score (relative to random genomic background probes); higher = stronger binding; sequences stand for … in GC…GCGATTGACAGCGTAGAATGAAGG
Answers are plain numbers.

- residueString: "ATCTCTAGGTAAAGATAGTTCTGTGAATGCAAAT"
  observed: 0.154
- residueString: "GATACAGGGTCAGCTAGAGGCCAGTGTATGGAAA"
  observed: 4.25
- residueString: "ACTAGCAGGTCAAGTTTGGGTCACTCAAACAAAG"
  observed: 4.85
- residueString: "AGAACTAGGGCAATGAGTTGATAGCACGGGTGGC"
  observed: 0.422
- residueString: "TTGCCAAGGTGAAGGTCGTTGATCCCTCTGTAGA"
  observed: 1.68

For each of the items listed, what is its PBM binding z-score?
1. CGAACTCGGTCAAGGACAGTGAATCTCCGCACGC
2. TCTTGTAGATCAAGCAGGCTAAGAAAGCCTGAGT

1: 0.345; 2: -0.67

----------
Tested on: PPARg DBDmut IVT, anti-PPARg (DBD mutation: PPARg1 K132A/R137A, NR concentration 270 nM)
assaySummary: PBM binding z-score (relative to random genomic background probes); higher = stronger binding; sequences stand for … in GC…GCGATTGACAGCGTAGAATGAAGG
Assign condition met to entries whose PBM binding z-score meets or exceeds -0.2; assign condition not met to the rest.

// below: answered sequences
- residueString: "GCTGCTAGGCCAGGTTGGTCAGCTAACGGGTACG"
  label: "condition not met"
- residueString: "TCATATGGGTAATACAGGTGAAAGTCGGCATCTA"
  label: "condition met"
- residueString: "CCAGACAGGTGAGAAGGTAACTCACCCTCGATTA"
  label: "condition not met"
- residueString: "AGTACAGGGTCATCGTAGGCCAGAGTACGCACAG"
  label: "condition met"

Record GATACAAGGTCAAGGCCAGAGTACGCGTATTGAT ; criterion: PBM binding z-score no lower than -0.2. Met?
condition met

Record GGTACGAGGGCAAGTTGATAGCAGAGTTTGATGG ; criterion: PBM binding z-score no lower than -0.2. Met?
condition not met

Record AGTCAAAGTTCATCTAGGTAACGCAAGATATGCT ; criterion: PBM binding z-score no lower than -0.2. Met?
condition met

Record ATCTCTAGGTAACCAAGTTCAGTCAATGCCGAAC ; criterion: PBM binding z-score no lower than -0.2. Met?
condition met

Record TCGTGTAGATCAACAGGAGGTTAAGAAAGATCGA ; criterion: PBM binding z-score no lower than -0.2. Met?
condition not met

----------
Tested on: VDR homodimer (NR concentration 270 nM)
assaySummary: PBM binding z-score (relative to random genomic background probes); higher = stronger binding; sequences stand for … in GC…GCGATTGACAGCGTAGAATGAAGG
valueKind: PBM binding z-score

Guide cases for PBM binding z-score, answers given:
- residueString: "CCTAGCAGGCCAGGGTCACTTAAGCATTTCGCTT"
  PBM binding z-score: 1.25
- residueString: "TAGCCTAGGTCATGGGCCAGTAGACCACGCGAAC"
  PBM binding z-score: 0.284
- residueString: "GCATATAGGTAATATAAGGTGAAAGTCCGATTGT"
  PBM binding z-score: 0.0802
- residueString: "TCTATTAGTTGATTAGGCCAACCGAAACAGCGGA"
  PBM binding z-score: 0.253

For each of the items listed, what is its PBM binding z-score?
1. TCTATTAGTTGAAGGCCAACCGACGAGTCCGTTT
2. CCTAGCAGGCCAATCTGGTTCACTCAAGGCTTGA
3. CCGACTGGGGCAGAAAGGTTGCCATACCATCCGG
4. AGTCAAAGTTCATGACGAGGTAACGTAAAGCACG
5. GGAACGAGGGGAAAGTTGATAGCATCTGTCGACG
6. GCCAGTTGGTCAGTAAAAGGTCACACACCGGTCG
7. TGAATGAGGTGATAAGATCAGGGAACGTTGCAAA

1: 1.35; 2: 0.42; 3: -0.404; 4: 4.11; 5: -0.402; 6: 1.83; 7: -0.465

Fill blank: measured PBM binding z-score of the sequence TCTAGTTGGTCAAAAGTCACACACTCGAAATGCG is ____.
0.578

----------
Test system: PPARg:RXRa (NR concentration 180 nM, RXRa partner concentration 90 nM)
assaySummary: PBM binding z-score (relative to random genomic background probes); higher = stronger binding; sequences stand for … in GC…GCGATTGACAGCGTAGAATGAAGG
Assign Criterion met to entries whose PBM binding z-score meets or exceeds 1; assign Criterion not met to the rest.

- residueString: "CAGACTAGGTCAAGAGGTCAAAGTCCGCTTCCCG"
  testedOn: "PPARg:RXRa (NR concentration 180 nM, RXRa partner concentration 90 nM)"
  label: "Criterion met"
- residueString: "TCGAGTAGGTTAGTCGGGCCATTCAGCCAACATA"
  testedOn: "PPARg:RXRa (NR concentration 180 nM, RXRa partner concentration 90 nM)"
  label: "Criterion not met"
- residueString: "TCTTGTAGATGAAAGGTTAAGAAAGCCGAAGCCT"
  testedOn: "PPARg:RXRa (NR concentration 180 nM, RXRa partner concentration 90 nM)"
  label: "Criterion met"
- residueString: "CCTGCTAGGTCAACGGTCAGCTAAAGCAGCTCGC"
  testedOn: "PPARg:RXRa (NR concentration 180 nM, RXRa partner concentration 90 nM)"
  label: "Criterion met"
- residueString: "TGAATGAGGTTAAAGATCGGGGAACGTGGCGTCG"
  testedOn: "PPARg:RXRa (NR concentration 180 nM, RXRa partner concentration 90 nM)"
  label: "Criterion met"
- residueString: "ACTAGCAGGCCAAGGGTCACTTAAGATTAGTCCG"
  testedOn: "PPARg:RXRa (NR concentration 180 nM, RXRa partner concentration 90 nM)"
  label: "Criterion met"
- residueString: "TCATTTAGGTAAATGCTAGGTGAAAGTCCGATCT"
  testedOn: "PPARg:RXRa (NR concentration 180 nM, RXRa partner concentration 90 nM)"
  label: "Criterion not met"
- residueString: "GATACAGGGTCAGCTAGAGGCCCGAGTATGGAAA"
  testedOn: "PPARg:RXRa (NR concentration 180 nM, RXRa partner concentration 90 nM)"
  label: "Criterion met"
- residueString: "CCTACTGGGCCAAGGCCATTGATCAGTCAAAGCA"
  testedOn: "PPARg:RXRa (NR concentration 180 nM, RXRa partner concentration 90 nM)"
  label: "Criterion not met"
- residueString: "ATCGAAAGGTCGGCGAGGTGAGTATACACCGTTT"
  testedOn: "PPARg:RXRa (NR concentration 180 nM, RXRa partner concentration 90 nM)"
  label: "Criterion met"

Consider now this further sequence.
Record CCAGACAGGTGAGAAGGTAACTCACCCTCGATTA ; criterion: PBM binding z-score no lower than 1. Met?
Criterion not met
